Catalogue of pIC50 values
# Study target: Sodium/potassium-transporting ATPase
# Assay overview: Inhibition of [3H]ouabain binding to Na/K ATP-ase in dog heart muscle
Please treat pIC50 as minus the base-10 logarithm of the molar concentration.

Compound | Study target | Metric name | Assay result
C[C@]12CC[C@H](OC[C@@H]3O[C@H](O)C[C@@H](O)[C@H]3O)C[C@@H]1CC[C@@H]1[C@@H]2CC[C@]2(C)[C@@H](C3=CC(=O)OC3)CC[C@@]12O | Sodium/potassium-transporting ATPase | pIC50 | 8.05
C[C@]12CC[C@H](OC[C@@H]3O[C@H](OC[C@@H]4O[C@H](OC[C@@H]5O[C@H](O)C[C@@H](O)[C@H]5O)C[C@@H](O)[C@H]4O)C[C@@H](O)[C@H]3O)C[C@@H]1CC[C@@H]1[C@@H]2CC[C@]2(C)[C@@H](C3=CC(=O)OC3)CC[C@@]12O | Sodium/potassium-transporting ATPase | pIC50 | 8.10
CC(=O)[C@H]1CC[C@@]2(O)[C@@H]3CC[C@H]4C[C@@H](OC[C@@H]5O[C@H](OC[C@@H]6O[C@H](O)C[C@@H](O)[C@H]6O)C[C@@H](O)[C@H]5O)CC[C@]4(C)[C@H]3CC[C@]12C | Sodium/potassium-transporting ATPase | pIC50 | 6.10

Read the next record carefully.
In: Short answer please: pIC50, Sodium/potassium-transporting ATPase, entry C[C@]12CC[C@H](OC[C@H]3O[C@H](O)[C@H](O)[C@@H](O)[C@@H]3O)CC1CC[C@@H]1[C@@H]2CC[C@]2(C)[C@H](C3=CC(=O)OC3)CC[C@@]12O (stereo not given in full)
Out: 8.52
